assay: Displacement of [3H]batrachotoxinin from rat brain sodium channel site 2 after 60 mins by scintillation counting analysis
experimental_endpoint: pKi
In simple prose, pKi is minus the logarithm base ten of a concentration in moles per litre.

Give the value of pKi reported for the following: Cl.Cl.O=c1c2cc(Cl)ccc2oc2ccc(CN3CCN(CCOCCO)CC3)cc12
5.87

* * *

assay: Mutagenicity in Salmonella typhimurium TA100 at 5 ug/plate preincubated for 20 mins followed by addition of top agar and measured after 48 hrs by Ames test; assay type: toxicity; settings: salmonella enterica subsp. enterica serovar typhimurium
experimental_endpoint: Activity_index

1) [N-]=[N+]=[N-].[Na+] [SODIUM AZIDE]: 2.26
2) Cl.Cl.O=c1c2cc(Cl)ccc2oc2ccc(CN3CCN(CCOCCO)CC3)cc12: 0.66
3) CN1CCN(Cc2ccc3oc4ccc(Cl)cc4c(=O)c3c2)CC1: 1.21

Give the value of Activity_index reported for the following: Cl.Cl.O=c1c2ccccc2oc2c(CN3CCN(CCO)CC3)cccc12
0.69

Give the value of Activity_index reported for the following: CCOC(=O)N1CCN(Cc2cccc3c(=O)c4ccc(OC)cc4oc23)CC1.Cl.Cl
0.68

* * *

Listed here: items and their measured Activity_index.
assay: Mutagenicity in Salmonella typhimurium TA98 at 50 ug/plate preincubated for 20 mins followed by addition of top agar and measured after 48 hrs by Ames test; assay type: toxicity; conditions: salmonella enterica subsp. enterica serovar typhimurium
In your answer, state the number alone without any accompanying words.

Below are worked cases with known answers.
1) Cl.Cl.O=c1c2ccccc2oc2c(CN3CCN(CCO)CC3)cccc12: 0.86
2) Cl.Cl.O=c1c2cc(Cl)ccc2oc2ccc(CN3CCN(CCOCCO)CC3)cc12: 0.76
3) CN1CCN(Cc2ccc3oc4ccc(Cl)cc4c(=O)c3c2)CC1: 0.78

Give the value of Activity_index reported for the following: CCOC(=O)N1CCN(Cc2cccc3c(=O)c4ccc(OC)cc4oc23)CC1.Cl.Cl
0.79

* * *

assay: Terminal half life in CD-1 mouse brain at 5 mg/kg, ip measured up to 480 mins by LC/ESI-MS/MS analysis; assay type: ADME, organism-based; conditions: read-out: beta t1/2
Listed here: items and their measured half-life.
Could you kindly put the unit after your number?

Give the value of half-life reported for the following: CCOC(=O)N1CCN(Cc2cccc3c(=O)c4ccc(OC)cc4oc23)CC1.Cl.Cl
1.2 h

Give the value of half-life reported for the following: CN1CCN(Cc2ccc3oc4ccc(Cl)cc4c(=O)c3c2)CC1
2.64 h

Give the value of half-life reported for the following: Cl.Cl.O=c1c2ccccc2oc2c(CN3CCN(CCO)CC3)cccc12
2.38 h

Give the value of half-life reported for the following: Cl.Cl.O=c1c2cc(Cl)ccc2oc2ccc(CN3CCN(CCOCCO)CC3)cc12
2.88 h

* * *

assay: Cmax in CD-1 mouse brain at 5 mg/kg, ip measured up to 480 mins by LC/ESI-MS/MS analysis; assay type: ADME, organism-based; set-up: dose 5 mg/kg, route intraperitoneal
Listed here: items and their measured Cmax.
Kindly answer with a numeric value in ng/mL, unit omitted.

1) Cl.Cl.O=c1c2cc(Cl)ccc2oc2ccc(CN3CCN(CCOCCO)CC3)cc12: 18600
2) CN1CCN(Cc2ccc3oc4ccc(Cl)cc4c(=O)c3c2)CC1: 3690

Give the value of Cmax reported for the following: Cl.Cl.O=c1c2ccccc2oc2c(CN3CCN(CCO)CC3)cccc12
2630

Give the value of Cmax reported for the following: CCOC(=O)N1CCN(Cc2cccc3c(=O)c4ccc(OC)cc4oc23)CC1.Cl.Cl
936

Ref: ChEMBL document CHEMBL4364344
